# System: M. tuberculosis H37Rv growth inhibition, no glycerol
# procedure summary: M. tuberculosis growth inhibition, confirmation, H37Rv, purified and synthesized compounds (AID 493181)
# condition details: 90% growth inhibition concentration
Where a SMILES comes first, the peptide text is derived from it. The star is where a group is joined. Cbz = O=C(OCc1ccccc1)*
Lab note: compare IC90 with 3 µM, writing Y if less and N if equal or more.

compound	group
CCOC(=O)C(C)Sc1ncnc2c1nnn2-c1ccc(F)cc1 (stereo unspecified)	N
CC(=NCc1ccc2c(c1)OCO2)C1=C(O)c2ccccc2C1=O	Y
c1ccc(/N=C2\N=C(Nc3ccccn3)c3ccccc32)nc1	Y
Cc1ccc2ccc3ccc(C)nc3c2n1	Y
CCOC(=O)CNC(=O)[C@H](Cc1ccccc1)NC(=O)OCc1ccccc1 (Cbz-Phe-Gly-OEt)	Y
COC(=O)C1CC(=O)N(c2ccc(OCc3ccccc3Cl)cc2)C1 (stereo unspecified)	N
COC(=O)CCc1nc2c(C#N)c(-c3ccc(Cl)cc3)ccn2n1	N
COC(=O)c1cc(=O)n(-c2ccc(F)cc2)c(=Nc2ccc(F)cc2)s1	N
CC(C)NC(=O)c1sc(=S)n2c1[nH]c(=O)c1ccc(C(=O)NCCc3ccc(Cl)cc3)cc12	Y
O=C1C(Br)=Cc2cccc3cccc1c23	Y
CNc1nc(SCc2ccccc2Cl)nc2c1CCCC2	Y
